Source of measurements: the Human Domainome abundance scans (Beltran et al. 2025)

B1: REST corepressor 3, residues 87 to 134; numbered along this chain, Q9P2K3 (parent)
chain: DEWTVEDKVLFEQAFSFHGKSFHRIQQMLPDKTIASLVKYYYSWKKTR

- Variants of: B1
- Assay Method Text: abundance fitness (aPCA) (normalised: wild type 0, dead -1); higher = more abundant; growth selection in yeast, the domain comes from the species named
- Cond: Homo sapiens
Metric: abundance fitness

Worked cases, abundance fitness given:
T4N = -0.257
Y40R = -0.964
M28G = -0.806
V9H = -0.237
D7G = -0.571

Hey, can you go through the list below and give me abundance fitness for every item?
1. V5D
2. Q27L
3. Y42Q
4. K20L
5. T47V
6. V9G

(A)
1. -0.104
2. -0.326
3. -0.117
4. -0.665
5. -0.752
6. -0.17
